Recorded log10(IC50), one value per entry.
Test system: Bel-7402
assay.remarks: Antiproliferative activity against human Bel-7402 cells assessed as inhibition of cell growth incubated for 72 hrs by SRB assay
Format: functional, cell-based
protocol.conditions: Bel-7402, 72 h
readout.kind: log10(IC50) (log10 of the value in µM)

>  <molecule>
C[C@H](Nc1nc(N)nc(N)c1C#N)c1nn(-c2cccc(S(C)(=O)=O)c2)c2cc(Cl)ccc12

>  <log10(IC50)>
0.65

$$$$
>  <molecule>
C[C@H](Nc1nc(N)nc(N)c1C#N)c1nn(-c2cccnc2)c2cc(Cl)ccc12

>  <log10(IC50)>
0.13

$$$$
>  <molecule>
C[C@H](Nc1ncnc2[nH]cnc12)c1nn(-c2cccc(S(C)(=O)=O)c2)c2cc(F)ccc12

>  <log10(IC50)>
1.30

$$$$
>  <molecule>
CC[C@H](Nc1ncnc2[nH]cnc12)c1nn(-c2cccnc2)c2cc(F)ccc12

>  <log10(IC50)>
1.46

$$$$
>  <molecule>
CC[C@H](Nc1ncnc2[nH]cnc12)c1nc2cccc(F)c2c(=O)n1-c1ccccc1

>  <log10(IC50)>
1.82

$$$$
>  <molecule>
C[C@H](Nc1nc(N)nc(N)c1C#N)c1nn(-c2cccc(S(C)(=O)=O)c2)c2cc(F)ccc12

>  <log10(IC50)>
1.34

$$$$
>  <molecule>
C[C@H](Nc1nc(N)nc(N)c1C#N)c1nn(-c2cccnc2)c2ccccc12

>  <log10(IC50)>
1.54

$$$$
>  <molecule>
CC(Nc1ncnc2[nH]cnc12)c1nn(-c2cccnc2)c2ccccc12 (racemic)

>  <log10(IC50)>
1.21

$$$$
>  <molecule>
C[C@H](Nc1nc(N)nc(N)c1C#N)c1nn(-c2ccncc2)c2cc(F)ccc12

>  <log10(IC50)>
0.92

$$$$
>  <molecule>
C[C@H](Nc1nc(N)nc(N)c1C#N)c1nn(-c2cccnc2)c2cc(F)ccc12

>  <log10(IC50)>
1.47

$$$$
>  <molecule>
C[C@H](Nc1ncnc2[nH]cnc12)c1nn(-c2cccnc2)c2ccc(F)cc12

>  <log10(IC50)>
1.50

$$$$
>  <molecule>
C[C@H](Nc1ncnc2[nH]cnc12)c1nn(-c2cccnc2)c2ccccc12

>  <log10(IC50)>
1.05

$$$$
>  <molecule>
CC[C@H](Nc1nc(N)nc(N)c1C#N)c1nn(-c2cccnc2)c2cc(Cl)ccc12

>  <log10(IC50)>
0.75

$$$$
>  <molecule>
C[C@H](Nc1nc(N)nc(N)c1C#N)c1nn(-c2cccnc2)c2cc(C(F)(F)F)ccc12

>  <log10(IC50)>
0.50

$$$$
>  <molecule>
C[C@H](Nc1ncnc(N)c1C#N)c1nn(-c2cccnc2)c2cc(F)ccc12

>  <log10(IC50)>
1.57

$$$$
>  <molecule>
C[C@H](Nc1ncnc2[nH]cnc12)c1nn(-c2ccc(C#N)cc2)c2cc(F)ccc12

>  <log10(IC50)>
1.50

$$$$

* * *

experimental.target: Phosphatidylinositol 4,5-bisphosphate 3-kinase catalytic subunit beta isoform (Homo sapiens, UniProt P42338)
Sequence (P42338 whole entry, canonical isoform): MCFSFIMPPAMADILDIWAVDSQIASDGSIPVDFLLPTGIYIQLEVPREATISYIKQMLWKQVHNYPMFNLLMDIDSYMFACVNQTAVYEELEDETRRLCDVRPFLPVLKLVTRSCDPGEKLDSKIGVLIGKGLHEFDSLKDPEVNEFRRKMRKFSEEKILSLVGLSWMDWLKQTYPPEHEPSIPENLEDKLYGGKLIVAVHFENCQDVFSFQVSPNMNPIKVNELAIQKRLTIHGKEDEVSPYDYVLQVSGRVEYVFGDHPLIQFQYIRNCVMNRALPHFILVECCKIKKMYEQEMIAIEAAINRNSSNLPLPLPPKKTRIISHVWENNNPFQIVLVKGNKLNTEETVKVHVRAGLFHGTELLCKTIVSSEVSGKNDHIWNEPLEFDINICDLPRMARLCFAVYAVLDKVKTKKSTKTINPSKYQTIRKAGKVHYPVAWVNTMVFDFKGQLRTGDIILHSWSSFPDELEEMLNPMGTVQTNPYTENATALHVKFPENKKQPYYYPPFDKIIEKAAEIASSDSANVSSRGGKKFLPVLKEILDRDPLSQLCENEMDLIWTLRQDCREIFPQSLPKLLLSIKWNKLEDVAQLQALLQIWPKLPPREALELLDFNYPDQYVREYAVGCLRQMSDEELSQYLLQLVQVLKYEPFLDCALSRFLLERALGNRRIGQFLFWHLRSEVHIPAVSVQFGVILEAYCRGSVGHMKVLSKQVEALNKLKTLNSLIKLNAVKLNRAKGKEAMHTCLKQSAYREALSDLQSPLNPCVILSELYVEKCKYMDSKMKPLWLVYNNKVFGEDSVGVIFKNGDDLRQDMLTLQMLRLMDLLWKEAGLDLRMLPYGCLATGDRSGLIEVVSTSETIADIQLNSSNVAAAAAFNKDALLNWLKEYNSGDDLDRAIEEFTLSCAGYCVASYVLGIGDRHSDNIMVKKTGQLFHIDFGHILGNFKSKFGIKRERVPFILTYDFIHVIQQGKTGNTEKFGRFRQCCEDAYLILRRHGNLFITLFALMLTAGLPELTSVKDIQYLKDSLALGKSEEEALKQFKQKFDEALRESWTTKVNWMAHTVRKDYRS
assay.remarks: Inhibition of PI3Kbeta (unknown origin) using PIP2 as substrate incubated for 1 hr in presence of ATP by ADP-Glo assay
Recorded IC50, one value per entry.
readout.kind: IC50

>  <substance.smiles>
C[C@H](Nc1nc(N)nc(N)c1C#N)c1nn(-c2cccnc2)c2cc(Cl)ccc12

>  <readout.kind>
IC50

>  <result>
41 nM

$$$$
>  <substance.smiles>
C[C@H](Nc1nc(N)nc(N)c1C#N)c1nn(-c2cccc(S(C)(=O)=O)c2)c2cc(Cl)ccc12

>  <readout.kind>
IC50

>  <result>
47 nM

$$$$
>  <substance.smiles>
CC[C@H](Nc1nc(N)nc(N)c1C#N)c1nn(-c2cccnc2)c2cc(Cl)ccc12

>  <readout.kind>
IC50

>  <result>
31 nM

$$$$
